We begin with a simple list: items and their reported koff.
# targetUnderTest: T1, Soluble heterodimeric CD3 protein (hCD3-epsilon/hCD3-delta) with either a human Fc tag (hFcΔAdp/hFc) or a … (human, UniProt P07766 23-126; P04234 22-105)
# T1 construct: also called hCD3ε/δ; not shown: Fc tag: human (hFcΔAdp/hFc)
# T1 sequence (P07766 23-126 limits assumed, stated change not applied, chain 1 of 2): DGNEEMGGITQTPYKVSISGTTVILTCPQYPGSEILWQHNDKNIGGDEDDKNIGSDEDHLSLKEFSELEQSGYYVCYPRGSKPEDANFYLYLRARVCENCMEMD
# T1 sequence (P04234 22-105 limits assumed, stated change not applied, chain 2 of 2): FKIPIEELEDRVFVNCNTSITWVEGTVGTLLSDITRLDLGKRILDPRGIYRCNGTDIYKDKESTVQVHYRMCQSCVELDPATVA
# protocolText: SPR Biacore 25C antibody-capture
Please reply with the bare figure in s⁻¹ and do not write the unit itself.

Known koff results, listed for orientation:
[
  {
    "binder": "H1H5757B (antibody, human IgG1, V domains shown, H1H: human IgG1 Fc; divalent) VH: EVQLVESGGGVVQPGRSLRLSCAASGFTFSSYGMHWVRQAPGKGLEWVTVILHDGSNRYSADSVKGRFTISRDNSKNTLYLQMNILRVEDTAVYYCTKGAMVRGVPYNHYYGMDVWGQGTTVTVSS VL: DIQMTQSPSSLSASVGDRVTITCRASQGIRNDLGWYQQKPGKAPKRLIYAASILQSGVPSRFSGSGSGTEFTLTISSLQPEDFATYYCLQHNSYPYTFGQGTKLEIKR",
    "koff / s⁻¹": 0.000785
  },
  {
    "binder": "H1H5771P (antibody, human IgG1, V domains shown, H1H: human IgG1 Fc; divalent) VH: EVQLVESGGGLVQPGRSLRLSCAASGFSFDNYAMHWVRQAPGQGLEWVSGISWNSGSRDYADSVKGRFTISRDNARNSLFLQMNSLSNEDTAMYYCAKDKSGYGSYFYGMDVWGQGTTVTVSS VL: EIVLTQSPGTLSLSPGDRATLSCRASQSIRNIYLAWYQQKPGQAPRLLIHGASTRATGIPDRFSGSGSGTDFTLTISRLEPEDFAVYYCQQRVSLPYTFGQGTKLEIK",
    "koff / s⁻¹": 0.000626
  }
]

INPUT: Need koff of H1H5793B (antibody, human IgG1, V domains shown, H1H: human IgG1 Fc; divalent) VH: QVQLVQSGTEVKKPGASMKVSCKASGYTFTGYYIHWVRQAPGQGLEWMGWINPNSDVTKYAQKFQGRVTLTRDTSISAAYIDLSRLRSDDTAIYYCARMGDGAVFDYWGQGTLVTVSS VL: DIQLTQSPSSLSASVGDRVTITCRASQRISSYLNWYQQKPGKAPKVLISVASSLQSGVPSRFSGSGFGTDFTLTISSLQPEDSASYYCQQSYNTPLTFGGGTKLEIKR , thanks.
OUTPUT: 0.000382

All values here come from patent US20190127480A1.
